assay: Permeability from apical to basolateral side of human Caco2 cells assessed as mass balance at compound, Lipoid S100 and vitamin E-TPGS ratio 1:1:1; type: ADME, cell-based; details: Caco-2, read-out: permeability
Please provide measured recovery for the entries that follow.
Give bare numbers, in %.

COMPOUND	UNIT ABBREV	REPORTED
C[C@H]1[C@H](C)CC[C@]2(C)CC[C@]3(C)C(=CC(=O)[C@@H]4[C@@]5(C)CC[C@@H](O)[C@](C)(C(=O)O)[C@@H]5CC[C@]43C)[C@H]12 [11-KETO BOSWELLIC ACID]	%	101

Continue with the next compound.
Query (compound): CC(=O)O[C@@H]1CC[C@@]2(C)[C@@H](CC[C@]3(C)[C@@H]2C(=O)C=C2[C@@H]4[C@@H](C)[C@H](C)CC[C@]4(C)CC[C@]23C)[C@@]1(C)C(=O)O [AKBA] ; field requested: recovery
98.8
